Listed here: items and their measured % Inhibition.
- Target Or Test System: HIV-1 protease (Human immunodeficiency virus type 1 group M subtype B, UniProt P04585)
- Construct: The protease (or proteinase) enzyme, consisting of only 99 amino acids
- Test Details: In vitro HIV protease inhibitory assay (fluorescently labeled substrate)
- Type: biochemical
- Study Conditions: HIV-1 Dose 10.0 (unit not given); pH 5.5, one hour, room temperature
The figure you give is taken to be in %; do not add the unit.

Here are 5 compounds together with their reported answers.
CN1CCC2(CC1)OC(=O)C(C(c1cccc(NS(=O)(=O)c3ccc(C#N)cc3)c1)C1CC1)=C2O (centres unmarked)    85.22
CCCC1(CCC)OC(=O)C(C(c2cccc(N(C)S(=O)(=O)c3ccc(C#N)cc3)c2)C2CC2)=C1O (centres unmarked)    111.53
C=CCC1(CC=C)OC(=O)C(C(c2ccccc2)C2CC2)=C1O (centres unmarked)    106.81
N#Cc1ccc(S(=O)(=O)Nc2cccc(C(C3=C(O)C4(CCNCC4)OC3=O)C3CC3)c2)cc1 (centres unmarked)    103.27
CC(=O)N1CCC2(CC1)OC(=O)C(C(c1cccc(NS(=O)(=O)c3ccc(C#N)cc3)c1)C1CC1)=C2O (centres unmarked)    98.33

CCCC1(CCC)OC(=O)C(C(c2cccc(NS(=O)(=O)c3cccnn3)c2)C2CC2)=C1O (centres unmarked) has a reported % Inhibition of 109.57

% Inhibition for CCN1CCC2(CC1)OC(=O)C(C(c1cccc(NS(=O)(=O)c3ccc(C#N)cc3)c1)C1CC1)=C2O (centres unmarked) is 94.47

The compound N#Cc1ccc(S(=O)(=O)Nc2cccc(C(C3=C(O)C4(CCN(C(=O)c5ccccc5)CC4)OC3=O)C3CC3)c2)cc1 (centres unmarked) showed % Inhibition equal to 109.04

---

Parameter % Inhibition: see the listing below.
- Target Or Test System: HIV-1 protease (Human immunodeficiency virus type 1 group M subtype B, UniProt P04585)
- Construct: The protease (or proteinase) enzyme, consisting of only 99 amino acids
- Test Details: In vitro HIV protease inhibitory assay (fluorescently labeled substrate)
- Type: biochemical
- Study Conditions: HIV-1 Dose 30.0 (unit not given); pH 5.5, one hour, room temperature
Respond with the bare value in %.

# annotated cases, reported % Inhibition shown
N#Cc1ccc(S(=O)(=O)Nc2cccc(C(C3=C(O)C4(CCN(CC5c6ccccc6-c6ccccc65)CC4)OC3=O)C3CC3)c2)cc1 (stereo not shown)    103.12
C=CCC1(CC=C)OC(=O)C(C(c2ccccc2)C2CC2)=C1O (stereo not shown)    106.29
N#Cc1ccc(S(=O)(=O)Nc2cccc(C(C3=C(O)C4(CCN(C(=O)OCC5c6ccccc6-c6ccccc65)CC4)OC3=O)C3CC3)c2)cc1 (stereo not shown)    123.63
CC(=O)N1CCC2(CC1)OC(=O)C(C(c1cccc(NS(=O)(=O)c3ccc(C#N)cc3)c1)C1CC1)=C2O (stereo not shown)    103.37
N#Cc1ccc(S(=O)(=O)Nc2cccc(C(C3=C(O)C4(CCN(C(=O)c5ccccc5)CC4)OC3=O)C3CC3)c2)cc1 (stereo not shown)    110.58

For reference, reported % Inhibition for CCN1CCC2(CC1)OC(=O)C(C(c1cccc(NS(=O)(=O)c3ccc(C#N)cc3)c1)C1CC1)=C2O (stereo not shown) stands at 101.07

Entry under test: CCCC1(CCC)OC(=O)C(C(c2cccc(N(C)S(=O)(=O)c3ccc(C#N)cc3)c2)C2CC2)=C1O (stereo not shown) . Its % Inhibition was 102.32
